# Measurement protocol: Adjuvant-induced arthritis model in rat: Mechanical Allodynia test (MA, Von Frey)
# Assay type: in vivo
# Run conditions: SD rat, CFA-induced arthritis; PO 3 days post CFA; compared to Dexamethasone
Collected Mechanical Allodynia (Von Frey), Minimal Efficacious Dose values appear next to each entry.

As a guide, the following entries are already answered.
COc1cc(OC)cc(-c2cc(COC(C)(C)C(=O)O)nn2Cc2ccccc2Cl)c1 [Example 224]; ≤10 mg/kg
CCOc1cc(OCC)cc(-c2cc(COC(C)(C)C(=O)O)nn2-c2ccccc2Cl)c1 [Example 180]; >10 mg/kg
Cc1ccccc1-n1nc(COC(C)(C)C(=O)O)cc1-c1cccc(OC2CCC2)c1 [Example 161]; ≤10 mg/kg
CCn1ncc2ccc(-c3cc(COC(C)(C)C(=O)O)nn3-c3ccccc3N3CCCC3)cc21 [Example 229]; 3 mg/kg
COc1cc(OC)cc(-c2cc(COC(C)(C)C(=O)O)nn2-c2ccccc2Cl)c1 [Example 179]; <10 mg/kg
CC(C)(OCc1cc(-c2cccc(OC3CC3)c2)n(-c2ccccc2N2CCC2)n1)C(=O)O [Example 232]; 1 mg/kg
CCCn1ncc2ccc(-c3cc(CO[C@](C)(CC)C(=O)O)nn3-c3ccccc3N3CCC3)cc21 [Example 267]; 3 mg/kg
CCn1ncc2ccc(-c3cc(CO[C@](C)(CC)C(=O)O)nn3-c3ccccc3N3CCCC3)cc21 [Example 268]; 1 mg/kg
Cn1ncc2cccc(-n3nc(COC(C)(C)C(=O)O)cc3-c3cccc(OC4CC4)c3)c21 [Example 191]; >10 mg/kg
CC(C)(OCc1cc(-c2cccc(OC3CC3)c2)n(-c2ccccc2Cl)n1)C(=O)O [Example 110]; 10 mg/kg

// query Please give measured Mechanical Allodynia (Von Frey), Minimal Efficacious Dose of the following entry: CC[C@@](C)(OCc1cc(-c2cccc(OC3CC3)c2)n(-c2ccccc2N2CCC2)n1)C(=O)O [Example 266]
// result 3 mg/kg

// query Please give measured Mechanical Allodynia (Von Frey), Minimal Efficacious Dose of the following entry: CCn1ncc2ccc(-c3cc(COC(C)(C)C(=O)O)nn3Cc3ccccc3Cl)cc21 [Example 150]
// result 10 mg/kg

// query Please give measured Mechanical Allodynia (Von Frey), Minimal Efficacious Dose of the following entry: CC(C)(OCc1cc(-c2cccc(OC3CCC3)c2)n(-c2ccccc2N2CCC2)n1)C(=O)O [Example 260]
// result 1 mg/kg

Where do the numbers come from? From patent US10214492B2.
